biological target: HiBit-KRAS^G12C (Homo sapiens, UniProt P01116, G12C); test: HiBit degradation assay in SW1573 HiBit-KRas^G12C cells; format: cell-based; set-up: expressed in transfected cells; host or cells: SW1573 (clone E6), modified pcDNA3.1 vector, TK promoter; settings: SW1573 HiBit-KRas^G12C, 0.5% DMSO, 24 hours
Sequence (P01116 1-186 isoform P01116-2 G12C limits assumed): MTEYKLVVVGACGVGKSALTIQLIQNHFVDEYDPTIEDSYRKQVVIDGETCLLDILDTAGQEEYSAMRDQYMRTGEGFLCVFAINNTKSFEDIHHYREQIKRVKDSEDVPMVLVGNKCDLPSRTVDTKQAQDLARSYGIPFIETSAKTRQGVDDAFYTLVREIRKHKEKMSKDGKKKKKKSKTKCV
measured-metric: KRas^G12C-HiBiT (SW1573; 0.5% DMSO) Dmax**

molecule: C=C(F)C(=O)N1CCN(c2nc(OCCN3CCC(COc4cc([C@H](C(=O)N5C[C@H](O)C[C@H]5C(=O)N[C@@H](C)c5ccc(-c6scnc6C)cc5)C(C)C)on4)CC3)nc3c(F)c(-c4cc(O)cc5ccccc45)c(Cl)cc23)C[C@@H]1CC#N (atropisomer, axis not shown) [Compound 167]
subject-of-test: HiBit-KRAS^G12C (Homo sapiens, UniProt P01116, G12C)
observed-result: A (A ≥ 70)

molecule: C=C(F)C(=O)N1CCN(c2nc(OCCN3CCC(COc4cc([C@H](C(=O)N5C[C@H](O)C[C@H]5C(=O)N[C@@H](C)c5ccc(-c6scnc6C)cc5)C(C)C)on4)CC3)nc3c(F)c(-c4cc(O)cc5ccccc45)c(Cl)cc23)C[C@@H]1CC#N (atropisomer, axis not shown) [Compound 166]
subject-of-test: HiBit-KRAS^G12C (Homo sapiens, UniProt P01116, G12C)
observed-result: B (35 < B < 70)

molecule: C=CC(=O)N1CCN(c2nc(OCCN3CCC(COc4cc([C@H](C(=O)N5C[C@H](O)C[C@H]5C(=O)N[C@@H](C)c5ccc(-c6scnc6C)cc5)C(C)C)on4)CC3)nc3c(F)c(-c4cc(O)cc5ccccc45)c(Cl)cc23)C[C@@H]1CC#N (atropisomer, axis not shown) [Compound 173]
subject-of-test: HiBit-KRAS^G12C (Homo sapiens, UniProt P01116, G12C)
observed-result: A (A ≥ 70)

molecule: C=CC(=O)N1CCN(c2nc(OCCN3CCC4(CC3)CN(c3cc([C@H](C(=O)N5C[C@H](O)C[C@H]5C(=O)N[C@@H](C)c5ccc(-c6scnc6C)cc5)C(C)C)on3)C4)nc3c(F)c(-c4cc(O)cc5ccccc45)c(Cl)cc23)C[C@@H]1CC#N (atropisomer, axis not shown) [Compound 107]
subject-of-test: HiBit-KRAS^G12C (Homo sapiens, UniProt P01116, G12C)
observed-result: B (35 < B < 70)

molecule: C=CC(=O)N1CCN(c2nc(OCCN3CCC4(CC3)CN(c3cc([C@H](C(=O)N5C[C@H](O)C[C@H]5C(=O)N[C@@H](C)c5ccc(-c6scnc6C)cc5)C(C)C)on3)C4)nc3c(F)c(-c4cc(O)cc5ccccc45)c(Cl)cc23)C[C@@H]1CC#N [Compound 139]
subject-of-test: HiBit-KRAS^G12C (Homo sapiens, UniProt P01116, G12C)
observed-result: A (A ≥ 70)

molecule: C=CC(=O)N1CCN(c2nc(OCCN3CCC(COc4cc([C@H](C(=O)N5C[C@H](O)C[C@H]5C(=O)N[C@@H](C)c5ccc(-c6scnc6C)cc5)C(C)C)on4)CC3)nc3c(F)c(-c4cc(O)cc5ccccc45)c(Cl)cc23)C[C@@H]1CC#N [Compound 169]
subject-of-test: HiBit-KRAS^G12C (Homo sapiens, UniProt P01116, G12C)
observed-result: A (A ≥ 70)

molecule: C=CC(=O)N1CCN(c2nc(OCCN3CCC(COCC(=O)N[C@H](C(=O)N4C[C@H](O)C[C@H]4C(=O)N[C@@H](C)c4ccc(-c5scnc5C)cc4)C(C)(C)C)CC3)nc3c(F)c(-c4cc(O)cc5ccccc45)c(Cl)cc23)C[C@@H]1CC#N [Compound 17]
subject-of-test: HiBit-KRAS^G12C (Homo sapiens, UniProt P01116, G12C)
observed-result: A (A ≥ 70)

molecule: C=CC(=O)N1CCN(c2nc(OCCN3CCC(COCC(=O)N[C@H](C(=O)N4C[C@H](O)C[C@H]4C(=O)N[C@@H](C)c4ccc(-c5scnc5C)cc4)C(C)(C)C)CC3)nc3c(F)c(-c4cc(O)cc5ccccc45)c(Cl)cc23)C[C@@H]1CC#N (atropisomer, axis not shown) [Compound 163]
subject-of-test: HiBit-KRAS^G12C (Homo sapiens, UniProt P01116, G12C)
observed-result: A (A ≥ 70)
